Below, pKi values reported for Carbonic anhydrase 9 (Homo sapiens) across several publications.
One number for each entry, as −log10 of the molar value.

Kindly give each listed record's pKi.
1. COC(=O)C1=Cc2cccc(OC)c2OC(=O)C1
2. NS(=O)(=O)c1ccc(C(=O)OCc2cn([C@@H]3O[C@H](CO)[C@@H](O)[C@H](O)[C@H]3O)nn2)cc1
3. COc1nc(Nc2ccc(S(N)(=O)=O)cc2)nc(OC)n1
4. NS(=O)(=O)c1ccc(-n2nnc(C(=O)N3N=C(c4ccccn4)CC3(O)C(F)(F)F)c2-c2ccc(F)cc2)cc1 (stereo not given)
5. Cc1ccc2c(c1)/C(=N/NC(=O)c1cc(-c3ccccc3)n(-c3ccc(S(N)(=O)=O)cc3)n1)C(=O)N2
6. O=c1[nH]c2cc(Cl)c(-n3cccc3)cc2c(=O)n1O

Reply:
1. 7.33
2. 6.74
3. 6.82
4. 9.15
5. 8.33
6. 8.08

Here are 3 molecules. What values of pKi were reported for them?
1. Nc1ccccc1C(O)c1ccc(-c2ccc(S(N)(=O)=O)cc2)cc1 (stereo not given)
2. NS(=O)(=O)c1ccc(NC(=O)Nc2nc(Cl)nc(Nc3ccccc3)n2)cc1
3. CC1=NNC(=O)/C1=N/Nc1ccc(S(N)(=O)=O)cc1

Reply:
1. 7.04
2. 7.85
3. 7.44

Ask: I would be grateful if you could share the reported pKi for Oc1ccccc1CNCCCCNCc1ccccc1O .
Reply: 5.36

* * *

# merged literature set: pKi with UniProtKB Q16790
One number for each entry, as −log10 of the molar value.

Here are 10 compounds together with their reported answers.
compound=Cc1nn(-c2ccc(S(N)(=O)=O)cc2)c(=O)c2ccccc12 target_of_assay="UniProtKB Q16790" reported_endpoint=pKi value_observed=9.62
compound=COC(=O)C1=Cc2cc(Cl)ccc2OC(=O)C1 target_of_assay="UniProtKB Q16790" reported_endpoint=pKi value_observed=7.70
compound=NS(=O)(=O)c1ccc(-n2nnc(C(=O)c3ccc(Cl)cc3)c2C(F)(F)F)cc1 target_of_assay="UniProtKB Q16790" reported_endpoint=pKi value_observed=7.32
compound=COc1cccc(-n2cc(COc3ccc4ccc(=O)oc4c3)nn2)c1 target_of_assay="UniProtKB Q16790" reported_endpoint=pKi value_observed=7.63
compound=NS(=O)(=O)c1ccc(/N=C2\NC(=O)/C(=C3/C(=O)N(Cc4ccccc4)c4ccc(Br)cc43)S2)cc1 target_of_assay="UniProtKB Q16790" reported_endpoint=pKi value_observed=6.49
compound=C=CCNC(=S)NNC(=O)c1ccncc1 target_of_assay="UniProtKB Q16790" reported_endpoint=pKi value_observed=6.01
compound=CC(=O)Nc1ccc(S(N)(=O)=O)cc1Cl target_of_assay="UniProtKB Q16790" reported_endpoint=pKi value_observed=6.71
compound=CC(C)NC(=O)Nc1cccc(S(N)(=O)=O)c1 target_of_assay="UniProtKB Q16790" reported_endpoint=pKi value_observed=5.66
compound=NS(=O)(=O)c1ccc2c(c1)C(=O)C(=O)N2Cc1c(F)cccc1F target_of_assay="UniProtKB Q16790" reported_endpoint=pKi value_observed=5.99
compound=NS(=O)(=O)Nc1ccc(S(=O)(=O)NCCc2ccc(S(N)(=O)=O)cc2)cc1 target_of_assay="UniProtKB Q16790" reported_endpoint=pKi value_observed=7.19

Batch request: pKi for each of the following compounds.
1. CC(C)(C)n1c(=O)cc(-c2ccc3ccccc3c2)[s+]1[O-] (stereo not given)
2. COc1ccc(-c2cc(C(=O)Nc3ccc4c(c3)c(S(N)(=O)=O)cn4C)c3ccccc3n2)cc1OC
3. CC(=O)CN1C(=O)c2ccccc2S1(=O)=O
4. CNCC(O)COc1ccc(S(=O)(=O)NC(C)C)cc1.Cl (stereo not given)
5. CN(C)c1nc(NC(=O)Nc2ccc(S(N)(=O)=O)cc2)nc(Nc2ccc(Cl)c(Cl)c2)n1
6. COc1ccc(C(=O)N2CCc3cc(OS(N)(=O)=O)c(OC)cc3C2=O)cc1OC
7. Cc1ccc2c(c1)S(=O)(=O)NC(=O)N2

Reply:
7.80
4.16
6.82
7.32
7.63
6.07
7.34

Dear reader, for each entry below, please note its pKi.
1. CNCC(O)COc1ccc(S(=O)(=O)NCCc2ccccc2)cc1 (stereo not given)
2. COc1cc(C)c(-c2cc(C(=O)O)n[nH]2)cc1C
3. NS(=O)(=O)c1ccc(C(=O)N2CCN(C(=O)c3ccc([N+](=O)[O-])cc3)CC2)cc1
4. NS(=O)(=O)c1ccc(/N=c2\scc(-c3ccc(-c4ccccc4)cc3)n2C2CCCCC2)cc1
5. Oc1ccc2oc(=S)ccc2c1
6. O=C(N/N=C1\C(=O)Nc2ccccc21)Nc1n[nH]c(=S)s1
7. C#CCOc1ccccc1/C=N/Cc1ccc(S(N)(=O)=O)cc1
8. O=C1NS(=O)(=O)c2cccc3c2N1CC3

Reply:
1. 7.23
2. 4.65
3. 7.95
4. 7.49
5. 6.10
6. 5.03
7. 5.97
8. 6.56

Your task in this section: give pKi for each listed record.
1. CN(C)/C=N/c1ncnc2c1ncn2CC(=O)NCCc1ccc(S(N)(=O)=O)cc1
2. CC(=O)OC[C@H]1O[C@@H](O[C@H]2[C@H](OC(C)=O)[C@@H](OC(C)=O)[C@H](NC(=S)NCCc3ccc(S(N)(=O)=O)cc3)O[C@@H]2COC(C)=O)[C@H](OC(C)=O)[C@@H](OC(C)=O)[C@H]1OC(C)=O
3. COC(=O)c1cccc(-c2ccc3c(c2)C=CS(=O)(=O)O3)c1
4. COC(=O)/C(O)=C1/C(=O)Nc2ccccc21
5. NS(=O)(=O)c1ccc(NC(=O)Nc2nc(Cl)nc(Nc3ccc(Cl)c(Cl)c3)n2)cc1
6. NS(=O)(=O)c1ccc(NC(=O)CN2CCC(C(=O)N/N=C3\C(=O)Nc4ccc(F)cc43)CC2)cc1
7. CCOC(=O)c1nn(-c2ccc(S(N)(=O)=O)cc2)c2nc3nc(-c4ccc(Cl)cc4)cc(-c4ccc(F)cc4)c3c(=O)n12
8. O=c1ccc2ccc(OCc3cn(-c4cccc(Cl)c4)nn3)cc2o1

Reply:
[6.95, 6.44, 8.05, 5.10, 7.45, 8.21, 5.49, 7.51]

Could you tell me pKi for each of these compounds? They are listed below.
1. COc1cc(/C=C/C(=O)OCCCCO[N+](=O)[O-])ccc1OC(=O)c1cccc(S(=O)(=O)Nc2nnc(S(N)(=O)=O)s2)c1
2. Nc1ncnc2c1cnn2CC(=O)Nc1nc2ccc(S(N)(=O)=O)cc2s1
3. CCCN(CCC)S(=O)(=O)c1ccc(C(=O)N[C@@H](CCCCN)C(N)=O)cc1
4. NS(=O)(=O)c1ccc(NC(=O)CN2CCC(C(=O)NN=C3C(=O)Nc4ccccc43)CC2)cc1

Reply:
1. 6.75
2. 8.55
3. 7.57
4. 7.61
